All figures here come from ChEMBL document CHEMBL3886833.

Target: Prostaglandin E2 receptor EP2 subtype (Homo sapiens, UniProt P43116)
Sequence (P43116 whole entry): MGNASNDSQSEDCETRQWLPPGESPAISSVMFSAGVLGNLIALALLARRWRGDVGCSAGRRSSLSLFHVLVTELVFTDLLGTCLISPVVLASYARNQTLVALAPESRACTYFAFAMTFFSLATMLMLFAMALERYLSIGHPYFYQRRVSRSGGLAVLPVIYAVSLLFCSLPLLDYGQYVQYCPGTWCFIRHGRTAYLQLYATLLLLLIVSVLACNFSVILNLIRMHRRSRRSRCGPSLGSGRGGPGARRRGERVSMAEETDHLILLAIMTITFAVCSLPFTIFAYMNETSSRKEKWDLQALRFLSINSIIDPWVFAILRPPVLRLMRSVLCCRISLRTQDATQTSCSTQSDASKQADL
Assay: Radioligand Binding Assay: The cell homogenate was centrifuged at 19000 r.p.m. for 20 min at 4° C. using a Beckman Ti-60 rotor. The resultant pellet was resuspended in TME buffer to give a final 1 mg/ml protein concentration, as determined by Biorad assay. Radioligand binding competition assays vs. [3H-]17-phenyl PGF2a , (5 nM) were performed in a 100 μl volume for 60 min. Binding reactions were started by adding plasma membrane fraction. The reaction was terminated by the addition of 4 ml ice-cold TRIS-HCl buffer and rapid filtration through glass fiber GF/B filters using a Brandel cell harvester. The filters were washed 3 times with ice-cold buffer and oven dried for one hour. [3H-] PGE2 (specific activity 180 Ci mmol) was used as the radioligand for EP receptors. [3H] 17-phenyl PGF2a, was employed for FP receptor binding studies. Binding studies employing EP1, EP2, EP4 and FP receptors were performed in duplicate in at least three separate experiments. A 200 μl assay volume was used. Incubations w
reported-property: Ki (nM)
API: value field is a number in nM; no unit string.

Challenge: Tell me Ki of O=C(O)c1ccc(CC[C@H]2C(=O)CC[C@@H]2/C=C/C(O)Cc2cccc(Br)c2)cc1 (single isomer, unassigned) when tested on Prostaglandin E2 receptor EP2 subtype (Homo sapiens, UniProt P43116).
Response given: 1170
